Tested on: HepG2 A10/hsp22 stress inducible clone
test_description: cells
Type: cell-based, human
conditions_used: calculated on Kolmogorov-Smirnov score curves; read-out: IC50 derived from KS curves, Cell Area
attribute_measured: IC50 (µM)
State the answer as a number, implicitly in µM.

Query: Need IC50, item [Cl][Cd][Cl] [CdCl2, Cadmium chloride]
Response: 25

----------
Tested on: HepG2 A10/hsp22 stress inducible clone
test_description: cells
Format: cell-based, human
conditions_used: Homo sapiens, HepG2, 6 h; […]; linear regression, two independent experiments; read-out: IC50 for Cell Area
attribute_measured: pIC50
Here pIC50 is given on a logarithmic scale as minus log10 of the concentration in mol/L.

Query: Need pIC50, item C[n+]1ccc(-c2cc[n+](C)cc2)cc1
Response: 4.36

----------
System: HepG2 A10/hsp22 stress inducible clone
test_description: cells
Format: cell-based, human
conditions_used: […]; linear regression, two independent experiments; read-out: IC50 for Cell Roundness
attribute_measured: IC50 (µM)
State the answer as a number, implicitly in µM.

Query: Need IC50, item [Cl][Cd][Cl] [CdCl2, Cadmium chloride]
Response: 52

Cited source for all entries: paper PMC1769465
